Molecular target: baculovirus-expressed JAK2 kinase (Homo sapiens, UniProt O60674)
Sequence (O60674 whole entry): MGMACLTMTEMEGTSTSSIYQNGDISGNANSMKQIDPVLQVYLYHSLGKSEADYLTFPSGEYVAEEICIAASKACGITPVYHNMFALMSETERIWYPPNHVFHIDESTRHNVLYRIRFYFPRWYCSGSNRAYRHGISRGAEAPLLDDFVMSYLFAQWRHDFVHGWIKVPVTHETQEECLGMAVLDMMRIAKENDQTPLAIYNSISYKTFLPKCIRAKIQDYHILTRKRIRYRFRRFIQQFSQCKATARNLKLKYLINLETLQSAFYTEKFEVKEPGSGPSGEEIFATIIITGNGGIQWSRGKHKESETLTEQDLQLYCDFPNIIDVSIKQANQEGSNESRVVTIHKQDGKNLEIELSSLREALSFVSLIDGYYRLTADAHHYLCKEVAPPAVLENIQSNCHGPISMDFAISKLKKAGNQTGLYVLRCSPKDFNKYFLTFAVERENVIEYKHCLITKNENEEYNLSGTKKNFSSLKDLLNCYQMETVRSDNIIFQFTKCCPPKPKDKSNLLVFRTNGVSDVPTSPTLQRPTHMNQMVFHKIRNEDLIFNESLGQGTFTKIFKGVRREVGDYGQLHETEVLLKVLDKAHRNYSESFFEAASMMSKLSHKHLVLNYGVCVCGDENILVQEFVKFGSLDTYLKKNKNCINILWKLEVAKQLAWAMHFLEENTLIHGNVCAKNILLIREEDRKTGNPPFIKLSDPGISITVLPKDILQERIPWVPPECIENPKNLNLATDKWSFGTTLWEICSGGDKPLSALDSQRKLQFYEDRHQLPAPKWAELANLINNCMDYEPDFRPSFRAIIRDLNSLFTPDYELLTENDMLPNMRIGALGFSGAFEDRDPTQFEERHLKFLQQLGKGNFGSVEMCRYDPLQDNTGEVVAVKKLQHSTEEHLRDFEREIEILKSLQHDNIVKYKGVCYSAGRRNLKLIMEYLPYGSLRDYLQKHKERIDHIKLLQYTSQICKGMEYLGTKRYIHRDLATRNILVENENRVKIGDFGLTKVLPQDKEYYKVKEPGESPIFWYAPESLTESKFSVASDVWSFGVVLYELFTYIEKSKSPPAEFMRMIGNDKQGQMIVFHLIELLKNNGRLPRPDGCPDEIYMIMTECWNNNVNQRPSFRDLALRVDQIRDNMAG
Assay: biochemical
Conditions: 0.2 μM ATP; read-out: JAK2 Potency
pIC50: −log10 of the molar value.
Endpoint Label: pIC50

* NC(=O)[C@@H]1[C@H](Nc2c(Br)cnc3[nH]c(-c4ccoc4)nc23)[C@H]2C=C[C@@H]1C2 | > 7.00
* NC(=O)[C@@H]1[C@H](Nc2c(Br)cnc3[nH]c(-c4cccc(F)c4)nc23)[C@H]2C=C[C@@H]1C2 | > 7.00
* NC(=O)[C@@H]1[C@H](Nc2c(Br)cnc3[nH]c(-c4cccnc4N4CCCC4)nc23)[C@H]2C=C[C@@H]1C2 | 5.00 to 6.00
* CN(C)c1ccc(-c2nc3c(N[C@H]4[C@@H](C(N)=O)[C@@H]5C=C[C@H]4C5)c(Br)cnc3[nH]2)cc1 | > 7.00
* CN(C)c1nc(Cl)c(-c2nc3c(N[C@H]4[C@@H](C(N)=O)[C@@H]5C=C[C@H]4C5)c(Br)cnc3[nH]2)s1 | > 7.00
* CNC(=O)[C@@H]1[C@H](Nc2c(Cl)cnc3[nH]c(-c4ccc(N5CCOCC5)cc4)nc23)[C@H]2C=C[C@@H]1C2 | > 7.00

* * *

Biological target: baculovirus-expressed ALK (Homo sapiens, UniProt Q9UM73)
Sequence (Q9UM73 19-1620): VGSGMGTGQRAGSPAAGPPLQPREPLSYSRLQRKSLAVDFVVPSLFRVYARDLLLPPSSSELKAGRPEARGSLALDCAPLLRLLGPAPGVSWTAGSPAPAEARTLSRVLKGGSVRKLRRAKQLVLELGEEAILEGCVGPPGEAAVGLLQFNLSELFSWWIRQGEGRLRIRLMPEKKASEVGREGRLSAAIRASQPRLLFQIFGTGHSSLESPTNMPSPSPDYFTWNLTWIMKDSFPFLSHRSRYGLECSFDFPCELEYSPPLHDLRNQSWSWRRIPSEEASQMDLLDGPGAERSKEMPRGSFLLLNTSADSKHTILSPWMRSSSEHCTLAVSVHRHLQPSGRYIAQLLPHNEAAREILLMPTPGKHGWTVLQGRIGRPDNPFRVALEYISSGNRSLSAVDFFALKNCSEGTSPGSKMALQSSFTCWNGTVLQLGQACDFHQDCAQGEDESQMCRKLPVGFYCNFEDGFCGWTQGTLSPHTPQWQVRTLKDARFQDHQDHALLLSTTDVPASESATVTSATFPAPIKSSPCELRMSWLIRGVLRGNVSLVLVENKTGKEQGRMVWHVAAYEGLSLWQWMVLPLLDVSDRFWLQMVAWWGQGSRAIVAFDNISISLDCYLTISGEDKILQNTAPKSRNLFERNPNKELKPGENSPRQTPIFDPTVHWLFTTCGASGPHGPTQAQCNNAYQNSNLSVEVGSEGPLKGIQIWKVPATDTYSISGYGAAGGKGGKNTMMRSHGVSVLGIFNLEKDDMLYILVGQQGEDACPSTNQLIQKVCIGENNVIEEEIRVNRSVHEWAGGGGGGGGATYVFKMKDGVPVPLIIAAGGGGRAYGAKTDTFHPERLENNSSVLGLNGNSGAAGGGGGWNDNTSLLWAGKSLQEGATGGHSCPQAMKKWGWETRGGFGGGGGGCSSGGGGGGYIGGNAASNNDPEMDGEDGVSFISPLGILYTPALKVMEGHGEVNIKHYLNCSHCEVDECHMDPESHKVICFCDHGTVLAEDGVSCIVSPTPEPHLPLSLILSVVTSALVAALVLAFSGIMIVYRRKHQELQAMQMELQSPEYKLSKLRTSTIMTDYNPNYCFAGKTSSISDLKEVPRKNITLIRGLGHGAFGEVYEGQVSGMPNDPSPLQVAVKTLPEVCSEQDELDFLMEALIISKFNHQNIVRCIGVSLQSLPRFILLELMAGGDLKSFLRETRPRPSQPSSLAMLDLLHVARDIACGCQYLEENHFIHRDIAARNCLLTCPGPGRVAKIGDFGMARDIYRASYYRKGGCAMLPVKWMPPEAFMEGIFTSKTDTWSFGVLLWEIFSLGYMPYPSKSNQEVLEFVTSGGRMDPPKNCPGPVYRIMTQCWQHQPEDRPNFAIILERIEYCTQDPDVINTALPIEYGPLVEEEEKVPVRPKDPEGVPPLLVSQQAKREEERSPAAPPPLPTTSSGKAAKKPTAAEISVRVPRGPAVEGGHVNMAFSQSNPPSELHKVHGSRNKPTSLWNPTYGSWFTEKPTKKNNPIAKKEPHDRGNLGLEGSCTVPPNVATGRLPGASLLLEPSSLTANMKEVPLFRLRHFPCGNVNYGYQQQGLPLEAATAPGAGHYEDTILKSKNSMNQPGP
Test: ALK kinase inhibition, TRF/ELISA
Type: biochemical
Details: read-out: ALK Potency
Where a name gives a salt, the structure may show the parent alone.
Endpoint Label: IC50

* CN1CCN(Cc2ccc(-c3nc4c(N[C@H]5[C@@H](C(N)=O)[C@@H]6C=C[C@H]5C6)c(Cl)cnc4[nH]3)cc2)CC1 [Compound XX, bis trifluoroacetic acid salt] | < 100 nM
* C=CCc1ccc(-c2nc3c(N[C@H]4[C@@H](C(N)=O)[C@@H]5C=C[C@H]4C5)c(Cl)cnc3[nH]2)c(OC)c1 [Compound LVI] | < 100 nM
* COc1cc(N2CCOCC2)ccc1-c1nc2c(N3C[C@@H]4C[C@H]3CN4)c(Cl)cnc2[nH]1 [Compound XXXVII, hydrochloride] | > 10000 nM
* NC(=O)[C@@H]1[C@H](Nc2c(Cl)cnc3[nH]c(-c4cccc(C(=O)N5CCNCC5)c4)nc23)[C@H]2C=C[C@@H]1C2 [Compound CCXIX] | < 100 nM
* CNC(=O)[C@@H]1[C@H](Nc2c(Cl)cnc3[nH]c(-c4ccc(N5CCOCC5)cc4)nc23)[C@H]2C=C[C@@H]1C2 [Compound CLXXVIII] | < 100 nM
* CC(C)NC(=O)[C@@H]1[C@H](Nc2c(Cl)cnc3[nH]c(-c4sc(N5CCCC5)nc4Cl)nc23)[C@H]2C=C[C@@H]1C2 [Compound CLXV] | 100 to 1000 nM
* Cn1cc(-c2nc3c(N[C@@]45CCC(C)(C(O)C4)C5(C)C)c(Cl)cnc3[nH]2)cn1 (stereo partly shown) [Compound CCII] | > 10000 nM

* * *

Molecular target: UniProtKB Q9UM73
Experiment: ALK kinase inhibition, TRF/ELISA
Format: biochemical
Conditions: read-out: ALK Potency
pIC50: −log10 of the molar value.
Endpoint Label: pIC50

* CN1CCN(C(=O)c2cccc(-c3nc4c(N[C@H]5[C@@H](C(N)=O)[C@@H]6C=C[C@H]5C6)c(Cl)cnc4[nH]3)c2)CC1 [Compound CCXXI] | 6.00 to 7.00
* NC(=O)[C@@H]1[C@H](Nc2c(Br)cnc3[nH]c(-c4ccccc4-n4cccn4)nc23)[C@H]2C=C[C@@H]1C2 [Compound CIV] | 5.00 to 6.00
* Cn1cc(-c2nc3c(N[C@H]4[C@@H](C(N)=O)[C@@H]5C=C[C@H]4C5)c(Br)cnc3[nH]2)cn1 [Compound LXXXV] | 6.00 to 7.00
* NC(=O)[C@@H]1[C@H](Nc2c(Br)cnc3[nH]c(-c4cccnc4N4CCOCC4)nc23)[C@H]2C=C[C@@H]1C2 [Compound CII] | 5.00 to 6.00
* O=C(NC1CC1)[C@@H]1[C@H](Nc2c(Cl)cnc3[nH]c(-c4sc(N5CCOCC5)nc4Cl)nc23)[C@H]2C=C[C@@H]1C2 [Compound CLXXIV] | > 7.00
* CC(O)CN1CCN(C(=O)c2cccc(-c3nc4c(N[C@H]5[C@@H](C(N)=O)[C@@H]6C=C[C@H]5C6)c(Cl)cnc4[nH]3)c2)CC1 (stereo partly shown) [Compound CCXXIII] | 6.00 to 7.00
* Cc1nc(C2CCNCC2)sc1-c1nc2c(N[C@H]3[C@@H](C(N)=O)[C@@H]4C=C[C@H]3C4)c(Cl)cnc2[nH]1 [Compound LXIV] | > 7.00
* CN(C)c1cccc(-c2nc3c(N[C@H]4[C@@H](C(N)=O)[C@@H]5C=C[C@H]4C5)ccnc3[nH]2)c1 [Compound LXXXVII] | < 5.00
* Cc1nc(C2CCN(CC(N)=O)CC2)sc1-c1nc2c(N[C@H]3[C@@H](C(N)=O)[C@@H]4C=C[C@H]3C4)c(Cl)cnc2[nH]1 [Compound LXV] | > 7.00
* COc1cc(N2CCN(C)CC2)ccc1-c1nc2c(N[C@H]3[C@@H](C(=O)N(C)C)[C@@H]4C=C[C@H]3C4)c(Cl)cnc2[nH]1 [Compound CXCVII] | > 7.00
* NC(=O)[C@@H]1[C@H](Nc2c(Cl)cnc3[nH]c(-c4ccc(N5CCOCC5)c(Cl)c4)nc23)[C@H]2C=C[C@@H]1C2 [Compound CXXXVII] | 6.00 to 7.00
* CN(C)c1ccc(-c2nc3c(N[C@H]4[C@@H](C(N)=O)[C@@H]5C=C[C@H]4C5)c(Cl)cnc3[nH]2)cc1 [Compound I] | > 7.00
* COc1ccncc1-c1nc2c(N[C@H]3[C@@H](C(N)=O)[C@@H]4C=C[C@H]3C4)c(Br)cnc2[nH]1 [Compound CIII] | > 7.00
* O=C(NC1CC1)[C@@H]1[C@H](Nc2c(Cl)cnc3[nH]c(-c4sc(N5CC[C@@H](O)C5)nc4Cl)nc23)[C@H]2C=C[C@@H]1C2 [Compound CLXXIII] | > 7.00
* CN(C)CCNC(=O)c1cccc(-c2nc3c(N[C@H]4[C@@H](C(N)=O)[C@@H]5C=C[C@H]4C5)c(Cl)cnc3[nH]2)c1 [Compound CCXXXI] | > 7.00
* COc1cc(CN2CCOCC2)ccc1-c1nc2c(N[C@@H]3CCCC[C@H]3NS(C)(=O)=O)c(Cl)cnc2[nH]1 [Compound LXX] | > 7.00
* CN1CCN(CCOc2ccc(-c3nc4c(N[C@H]5[C@@H](C(=O)N(C)C)[C@@H]6C=C[C@H]5C6)c(Cl)cnc4[nH]3)cc2)CC1 [Compound CLXXV] | > 7.00
* CC(C)NC(=O)[C@@H]1[C@H](Nc2c(Cl)cnc3[nH]c(-c4sc(N5CC[C@@H](O)C5)nc4Cl)nc23)[C@H]2C=C[C@@H]1C2 [Compound CLXIX] | 6.00 to 7.00
* NC(=O)[C@@H]1[C@H](Nc2c(Cl)cnc3[nH]c(-c4cccc(OCC(=O)O)c4)nc23)[C@H]2C=C[C@@H]1C2 [Compound CCLXIII] | 6.00 to 7.00
* COc1cc(N2CCC(N3CCN(C)CC3)CC2)ccc1-c1nc2c(N[C@H]3[C@@H](C(N)=O)[C@@H]4C=C[C@H]3C4)c(Br)cnc2[nH]1 [Compound XCVIII] | > 7.00
* NC(=O)[C@@H]1[C@H](Nc2c(Br)cnc3[nH]c(-c4ccc(CN5CCOCC5)cc4)nc23)[C@H]2C=C[C@@H]1C2 [Compound LXXX] | > 7.00
* COc1cc(N2CCOCC2)ccc1-c1nc2c(NC34CCC(C)(C(=O)C3)C4(C)C)c(Cl)cnc2[nH]1 (stereo not shown) [Compound CC] | 6.00 to 7.00
* CC(O)CN1CCN(C(=O)c2ccc(-c3nc4c(N[C@H]5[C@@H](C(N)=O)[C@@H]6C=C[C@H]5C6)c(Cl)cnc4[nH]3)cc2)CC1 (stereo partly shown) [Compound CCXXIV] | > 7.00
* Cc1nn(C)c(C)c1-c1nc2c(N[C@H]3[C@@H](C(N)=O)[C@@H]4C=C[C@H]3C4)c(Cl)cnc2[nH]1 [Compound CLI] | > 7.00
* COc1cc(N2CCOCC2)ccc1-c1nc2c(N3C[C@@H]4C[C@H]3CN4C[C@H](C)O)c(Cl)cnc2[nH]1 [Compound XXXIX] | < 5.00
